Taken from the NIST ThermoML archive (doi:10.1016/j.jct.2011.01.016).

conditions: 333.15 K; 101.33 kPa; Liquid; Vibrating tube method
parameter measured: mass density (kg/m3)
Answers are plain numbers, in kg/m3.

Known mass density results, listed for orientation:
{"compound": "CCCCCCCCCCCCCC[P+](CCCCCC)(CCCCCC)CCCCCC.[Cl-] [trihexyl(tetradecyl)phosphonium chloride]", "mass density [kg/m3]": 869.5}
{"compound": "CCCCCCCCCCCCCC[P+](CCCCCC)(CCCCCC)CCCCCC.O=S(=O)([N-]S(=O)(=O)C(F)(F)F)C(F)(F)F", "mass density [kg/m3]": 1040.9}
{"compound": "CCCCCCCCCCCCCC[P+](CCCCCC)(CCCCCC)CCCCCC.N#C[N-]C#N [tetradecyl(trihexyl)phosphonium dicyanamide]", "mass density [kg/m3]": 879.2}
{"compound": "CCCCCCCCCCCCCC[P+](CCCCCC)(CCCCCC)CCCCCC.CS(=O)(=O)[O-] [trihexyltetradecylphosphonium methanesulfonate]", "mass density [kg/m3]": 907}
{"compound": "CCCCCCCCCCCCCC[P+](CCCCCC)(CCCCCC)CCCCCC.[Br-] [tetradecyltrihexylphosphonium bromide]", "mass density [kg/m3]": 933.7}
{"compound": "CCCCCCCCCC(=O)[O-].CCCCCCCCCCCCCC[P+](CCCCCC)(CCCCCC)CCCCCC [trihexyltetradecylphosphonium decanoate]", "mass density [kg/m3]": 859.2}

Attention now shifts to the item below.
Identify mass density associated with the compound CC(CC(C)(C)C)CP(=O)([O-])CC(C)CC(C)(C)C.CCCCCCCCCCCCCC[P+](CCCCCC)(CCCCCC)CCCCCC 864.6
